// provenance: patent US7989459B2

Molecular target: PKCθ (Homo sapiens)
Sequence (Q04759 whole entry): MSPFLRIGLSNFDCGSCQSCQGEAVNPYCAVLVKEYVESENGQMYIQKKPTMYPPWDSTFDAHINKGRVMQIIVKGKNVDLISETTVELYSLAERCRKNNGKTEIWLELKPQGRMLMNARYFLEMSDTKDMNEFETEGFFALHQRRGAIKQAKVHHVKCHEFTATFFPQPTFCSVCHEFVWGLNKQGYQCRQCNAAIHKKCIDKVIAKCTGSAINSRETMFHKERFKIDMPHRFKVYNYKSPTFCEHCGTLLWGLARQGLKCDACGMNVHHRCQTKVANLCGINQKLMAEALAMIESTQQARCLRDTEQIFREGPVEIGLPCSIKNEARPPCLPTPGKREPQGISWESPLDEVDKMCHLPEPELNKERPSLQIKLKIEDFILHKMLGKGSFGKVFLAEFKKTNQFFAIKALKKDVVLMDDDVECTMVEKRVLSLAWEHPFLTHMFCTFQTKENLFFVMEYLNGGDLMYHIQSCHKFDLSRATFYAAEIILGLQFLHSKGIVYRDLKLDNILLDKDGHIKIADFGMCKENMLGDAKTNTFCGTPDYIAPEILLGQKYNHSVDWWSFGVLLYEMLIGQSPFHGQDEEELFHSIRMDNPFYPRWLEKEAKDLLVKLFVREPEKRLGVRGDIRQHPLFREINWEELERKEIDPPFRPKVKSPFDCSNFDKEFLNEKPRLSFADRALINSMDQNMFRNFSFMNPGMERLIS
Experiment: Ki Pan Vera (PV) PKCθ
Assay type: biochemical
Experimental: For Ki Pan Vera (PV) of PKCθ, entries identified with “A” had values below 100 nM; entries identified with “B” had values below 1 μM.
Catalogue of Ki readings, one per entry.

- Compound: "O=c1[nH]c2cnc(NC[C@@H]3CCCNC3)nc2n1Cc1c(Cl)cccc1Cl"
  Ki: "< 100 nM"

Lab book: Ki of O=c1[nH]c2cnc(NC[C@@H]3CCNC3)nc2n1Cc1ccccc1C(F)(F)F noted as < 100 nM

Lab book: Ki of O=c1[nH]c2cnc(NC[C@H]3CCNC3)nc2n1Cc1ccccc1C(F)(F)F noted as < 100 nM

Lab book: Ki of COc1ccccc1Cn1c(=O)[nH]c2cnc(NCCCN)nc21 noted as < 1000 nM

Lab book: Ki of O=c1[nH]c2cnc(NCC3CCNC3)nc2n1Cc1c(F)cccc1Cl (stereo not drawn) noted as < 100 nM

Lab book: Ki of O=c1[nH]c2cnc(NCC3CCNCC3)nc2n1Cc1ccccc1Br noted as < 1000 nM

Lab book: Ki of O=c1[nH]c2cnc(NCC3CCCNC3)nc2n1Cc1ccccc1Cl (stereo not drawn) noted as < 1000 nM

Lab book: Ki of O=c1[nH]c2cnc(NC[C@H]3CCCNC3)nc2n1Cc1c(Cl)cccc1Cl noted as < 1000 nM

Lab book: Ki of NCCCNc1ncc2[nH]c(=O)n(Cc3cc(Cl)ccc3Cl)c2n1 noted as < 100 nM

Lab book: Ki of O=c1[nH]c2cnc(NC[C@@H]3CCNC3)nc2n1Cc1ccccc1Cl noted as < 1000 nM

Lab book: Ki of O=c1[nH]c2cnc(NCC3CCNCC3)nc2n1-c1cccc(Cl)c1 noted as < 1000 nM

Lab book: Ki of NCCCNc1ncc2[nH]c(=O)n(Cc3c(F)cccc3Cl)c2n1 noted as < 100 nM

Lab book: Ki of O=c1[nH]c2cnc(NCC3CCNCC3)nc2n1Cc1ccccc1Cl noted as < 1000 nM

----------
Catalogue of Ki readings, one per entry.
Biological target: PKC delta (Homo sapiens, UniProt Q05655)
Sequence (Q05655 whole entry): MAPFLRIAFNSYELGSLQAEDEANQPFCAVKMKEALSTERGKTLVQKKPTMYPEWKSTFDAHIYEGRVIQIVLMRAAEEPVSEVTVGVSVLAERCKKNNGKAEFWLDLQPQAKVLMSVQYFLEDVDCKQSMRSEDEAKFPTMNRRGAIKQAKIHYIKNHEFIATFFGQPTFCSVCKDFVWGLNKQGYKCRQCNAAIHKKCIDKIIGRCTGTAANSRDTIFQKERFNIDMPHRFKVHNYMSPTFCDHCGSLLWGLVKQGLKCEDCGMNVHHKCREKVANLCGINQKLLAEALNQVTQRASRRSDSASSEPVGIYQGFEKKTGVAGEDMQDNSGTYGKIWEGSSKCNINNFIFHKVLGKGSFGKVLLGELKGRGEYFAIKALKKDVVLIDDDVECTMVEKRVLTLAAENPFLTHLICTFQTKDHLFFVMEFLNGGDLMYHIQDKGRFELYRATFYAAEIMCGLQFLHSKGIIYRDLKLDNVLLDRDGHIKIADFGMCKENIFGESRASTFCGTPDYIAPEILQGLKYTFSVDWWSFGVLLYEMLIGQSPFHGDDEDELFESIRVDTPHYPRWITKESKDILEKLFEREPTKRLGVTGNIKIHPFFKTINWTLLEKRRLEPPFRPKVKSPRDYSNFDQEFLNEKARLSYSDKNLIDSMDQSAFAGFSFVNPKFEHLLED
Assay: Ki Pan Vera (PV) PKC delta
Assay type: biochemical

Look over these answered cases.
- Molecule: "O=c1[nH]c2cnc(NC[C@@H]3CCNC3)nc2n1Cc1cccc(Cl)c1Cl"
  Ki: "> 15 nM"
- Molecule: "O=c1[nH]c2cnc(NCC3CCNC3)nc2n1Cc1c(F)cccc1Cl (stereo not drawn)"
  Ki: "> 15 nM"
- Molecule: "O=c1[nH]c2cnc(NCC3CCNCC3)nc2n1-c1cccc(Cl)c1"
  Ki: "> 1000 nM"
- Molecule: "O=c1[nH]c2cnc(NC[C@H]3CCCNC3)nc2n1Cc1c(Cl)cccc1Cl"
  Ki: "> 100 nM"
- Molecule: "O=c1[nH]c2cnc(NCC3CCNC3)nc2n1Cc1cccc(Cl)c1Cl (stereo not drawn)"
  Ki: "> 100 nM"
- Molecule: "NCCCNc1ncc2[nH]c(=O)n(Cc3cc(F)ccc3C(F)(F)F)c2n1"
  Ki: "> 100 nM"
- Molecule: "NCCCNc1ncc2[nH]c(=O)n(Cc3c(F)cccc3F)c2n1"
  Ki: "> 100 nM"
- Molecule: "O=c1[nH]c2ccc(NC[C@@H]3CCNC3)nc2n1Cc1c(Cl)cccc1Cl"
  Ki: "> 15 nM"

Attention now turns to another entry.
Lab book: Ki of NCCCNc1ncc2[nH]c(=O)n(Cc3cc(Cl)ccc3Cl)c2n1 noted as > 100 nM

----------
Biological target: PKC delta (Homo sapiens, UniProt Q05655)
Test: Ki Pan Vera (PV) PKC delta
Experimental endpoint: Ki

- Compound: "O=c1[nH]c2cnc(NCC3CCNC3)nc2n1Cc1ccccc1OC(F)(F)F (stereo not drawn) [Compound 112]"
  Ki: "> 100 nM"

Lab book: Ki of O=c1[nH]c2cnc(NC[C@@H]3CCCNC3)nc2n1Cc1ccccc1C(F)(F)F [Compound 144] noted as > 100 nM

Lab book: Ki of O=c1[nH]c2ccc(NC[C@H]3CCNC3)nc2n1Cc1c(Cl)cccc1Cl [Compound 148] noted as > 100 nM

----------
Reported pIC50, SGK1 (Homo sapiens, UniProt O00141).
pIC50: −log10 of the molar value.

- Molecule: "O=c1[nH]c2cnc(NC[C@@H]3CCNC3)nc2n1Cc1ccccc1C(F)(F)F"
  Experimental endpoint: "pIC50"
  Result: "< 5.00"
- Molecule: "NCCCNc1ncc2[nH]c(=O)n(Cc3ccccc3Cl)c2n1"
  Experimental endpoint: "pIC50"
  Result: "< 5.00"
- Molecule: "O=c1[nH]c2cnc(NC[C@@H]3CCCNC3)nc2n1Cc1ccccc1C(F)(F)F"
  Experimental endpoint: "pIC50"
  Result: "< 5.00"
- Molecule: "O=c1[nH]c2cnc(NCC3CCNC3)nc2n1Cc1ccccc1Cl (stereo not shown)"
  Experimental endpoint: "pIC50"
  Result: "< 5.00"
- Molecule: "O=c1[nH]c2cnc(NC[C@H]3CCNC3)nc2n1Cc1ccccc1Cl"
  Experimental endpoint: "pIC50"
  Result: "< 6.00"
- Molecule: "NCCCNc1ncc2[nH]c(=O)n(Cc3ccccc3Br)c2n1"
  Experimental endpoint: "pIC50"
  Result: "< 6.00"
- Molecule: "O=c1[nH]c2cnc(NC[C@H]3CCCNC3)nc2n1Cc1c(Cl)cccc1Cl"
  Experimental endpoint: "pIC50"
  Result: "< 5.00"
- Molecule: "O=c1[nH]c2cnc(NC[C@@H]3CCNC3)nc2n1Cc1ccccc1Cl"
  Experimental endpoint: "pIC50"
  Result: "< 5.00"
- Molecule: "O=c1[nH]c2cnc(NCC3CCNC3)nc2n1Cc1ccccc1F (stereo not shown)"
  Experimental endpoint: "pIC50"
  Result: "< 5.00"

Attention now turns to another entry.
Tested on SGK1 (Homo sapiens, UniProt O00141), the item O=c1[nH]c2cnc(NCC3CCNC3)nc2n1Cc1cccc(Cl)c1Cl (stereo not shown) showed pIC50 equal to < 5.00

----------
Molecular target: SGK1 (Homo sapiens)
Sequence (O00141 1-431): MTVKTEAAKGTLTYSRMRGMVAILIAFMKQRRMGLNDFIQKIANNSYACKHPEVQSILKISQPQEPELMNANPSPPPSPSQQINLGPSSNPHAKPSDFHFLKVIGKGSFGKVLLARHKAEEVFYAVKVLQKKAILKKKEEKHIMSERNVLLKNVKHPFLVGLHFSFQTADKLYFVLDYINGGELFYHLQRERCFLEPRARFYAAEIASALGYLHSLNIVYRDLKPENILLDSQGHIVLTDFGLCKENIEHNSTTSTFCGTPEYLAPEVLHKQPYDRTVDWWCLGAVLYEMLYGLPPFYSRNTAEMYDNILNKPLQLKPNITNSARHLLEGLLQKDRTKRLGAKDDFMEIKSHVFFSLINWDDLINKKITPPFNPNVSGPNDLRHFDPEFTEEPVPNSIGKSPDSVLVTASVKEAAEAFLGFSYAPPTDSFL
Assay: IC50 for kinase SGK (selectivity)
Assay type: biochemical
Procedure: Entries identified with “1” had values above 15 nM; entries identified with “2” had values above 100 nM; entries identified with “3” had values above 1 μM; entries identified with “4” had values above 10 μM. In Table 2, “nd” stands for “not determined.”

- Compound: "O=c1[nH]c2cnc(NCC3CCNCC3)nc2n1Cc1ccccc1Cl"
  IC50-SGK1 (nM): "Inactive"
- Compound: "O=c1[nH]c2cnc(NCC3CCNCC3)nc2n1Cc1c(Cl)cccc1Cl"
  IC50-SGK1 (nM): "Inactive"
- Compound: "O=c1[nH]c2cnc(NCC3CCNC3)nc2n1Cc1ccccc1OC(F)(F)F (stereo not drawn)"
  IC50-SGK1 (nM): "Inactive"

----------
Catalogue of pKi readings, one per entry.
Target: PKC delta (Homo sapiens)
Assay: Ki Pan Vera (PV) PKC delta
pKi: −log10 of the molar value.

Look over these answered cases.
- Compound: "O=c1[nH]c2cnc(NCC3CCNCC3)nc2n1Cc1ccccc1C(F)(F)F [Compound 145]"
  Result: "< 6.00"
- Compound: "O=c1[nH]c2cnc(NC[C@H]3CCCNC3)nc2n1Cc1ccccc1C(F)(F)F [Compound 142]"
  Result: "< 7.00"
- Compound: "Cc1ccccc1Cn1c(=O)[nH]c2cnc(NCCCN)nc21 [Compound 216]"
  Result: "< 6.00"
- Compound: "O=c1[nH]c2cnc(NCC3CCNC3)nc2n1Cc1cc(F)ccc1C(F)(F)F (stereo not drawn) [Compound 105]"
  Result: "< 7.82"
- Compound: "NCCCNc1ccc2[nH]c(=O)n(Cc3c(Cl)cccc3Cl)c2n1 [Compound 149]"
  Result: "< 7.00"
- Compound: "O=c1[nH]c2cnc(NCC3CCNC3)nc2n1Cc1c(Cl)cccc1Cl (stereo not drawn) [Compound 108]"
  Result: "< 7.82"

Lab book: pKi of O=c1[nH]c2cnc(NC[C@H]3CCCNC3)nc2n1Cc1ccccc1Br [Compound 141] noted as < 7.00

Lab book: pKi of O=c1[nH]c2cnc(NC[C@@H]3CCNC3)nc2n1Cc1c(Cl)cccc1Cl [Compound 101] noted as < 7.82

Lab book: pKi of O=c1[nH]c2cnc(NC[C@@H]3CCNC3)nc2n1Cc1ccccc1C(F)(F)F [Compound 116] noted as < 7.00

Lab book: pKi of O=c1[nH]c2cnc(NCC3CCNCC3)nc2n1Cc1cccc(Cl)c1 [Compound 215] noted as < 6.00

Lab book: pKi of NCCCNc1ncc2[nH]c(=O)n(Cc3cccc(Cl)c3)c2n1 [Compound 214] noted as < 6.00

Lab book: pKi of O=c1[nH]c2cnc(NCC3CCNC3)nc2n1Cc1ccccc1C(F)(F)F (stereo not drawn) [Compound 109] noted as < 7.82

Lab book: pKi of O=c1[nH]c2cnc(NCC3CCNC3)nc2n1[C@@H]1CCc2ccccc21 (stereo partly drawn) [Compound 231] noted as < 6.00

Lab book: pKi of O=c1[nH]c2cnc(NCC3CCNC3)nc2n1Cc1c(F)cccc1F (stereo not drawn) [Compound 119] noted as < 7.00

Lab book: pKi of NCCCNc1ncc2[nH]c(=O)n(Cc3cccc(Cl)c3Cl)c2n1 [Compound 117] noted as < 7.00

Lab book: pKi of NCCCNc1ncc2[nH]c(=O)n(Cc3ccccc3OC(F)(F)F)c2n1 [Compound 139] noted as < 6.00

Lab book: pKi of O=c1[nH]c2cnc(NC[C@H]3CCNC3)nc2n1Cc1ccccc1C(F)(F)F [Compound 122] noted as < 7.00

Lab book: pKi of O=c1[nH]c2cnc(NCC3CCNCC3)nc2n1Cc1ccccc1Br [Compound 201] noted as < 7.00
